Species on record: Rattus norvegicus
Assay: Open TG-GATES - Regimen: Single
Assay type: toxicity, organism-based, Sprague-Dawley
Design: regimen Single, gender Male, age 6 weeks
Details: in vivo, po, 0 mg/kg, 9 h, tissue Plasma, route gavage, dose level Control
parameter: RALB (g/dL)
Hi! Could you send only the number? It should be in g/dL, unit omitted.

// lookup RALB for C[C@H]1O[C@H](O[C@H]2[C@H](O)[C@@H](O)[C@@H](O[C@H]3[C@H](O)[C@@H](O)C(O)O[C@@H]3CO)O[C@@H]2CO)[C@H](O)[C@@H](O)[C@@H]1N[C@H]1C=C(CO)[C@@H](O)[C@H](O)[C@H]1O (stereo partly drawn)
2.5

// lookup RALB for `OCCN1CCN(CCCN2c3ccccc3Sc3ccc(C(F)(F)F)cc32)CC1`
3.7

// lookup RALB for `C=C(C)[C@H]1Cc2c(ccc3c2O[C@@H]2COc4cc(OC)c(OC)cc4[C@@H]2C3=O)O1`
3.8

// lookup RALB for CCOC(=O)C(C)(C)Oc1ccc(Cl)cc1 [CLOFIBRATE]
3.3

// lookup RALB for `Cc1ccc2cc3c(ccc4ccccc43)c3c2c1CC3`
2.7

// lookup RALB for `Cn1cc[nH]c1=S`
2.9

// lookup RALB for `C[C@H]1C(=O)O[C@@H]2CCN3CC=C(COC(=O)[C@](C)(O)[C@]1(C)O)[C@H]23`
3.1

// lookup RALB for Cc1cccc(C)c1OCC(C)N (stereo not drawn)
3
